assay-explanation: n-octanol/water partition coefficient, log P of the compound at 25 deg C after 24 hrs by saturation shake flask based UV spectroscopy
Assay type: physicochemical
Tick Yes if logP at 24 h is 2 or greater. Tick No if logP at 24 h is less than 2.

Worked set:
{"columns": ["molecular-string", "class-name"],
 "data": [
  ["COc1ccc(N(Cc2nnn[nH]2)Cc2ccc(F)cc2F)cc1", "No"],
  ["CCCCCCCCN(Cc1nnn[nH]1)c1ccccc1", "Yes"]
]}

q: Decide: is the reported value of logP at 24 h for `Cc1ccc(N(Cc2nnn[nH]2)Cc2ccc(F)cc2F)cc1` equal to or greater than 2?
a: No

q: Decide: is the reported value of logP at 24 h for `Clc1ccccc1CN(Cc1nnn[nH]1)c1ccccc1` equal to or greater than 2?
a: No

q: Decide: is the reported value of logP at 24 h for `COc1ccc(N(Cc2nnn[nH]2)Cc2ccc(Cl)cc2Cl)cc1` equal to or greater than 2?
a: No

---

Tested on: Aspergillus flavus
assay-explanation: Antifungal activity against Aspergillus flavus after 24 hrs by micro broth dilution method
Format: functional
property: MIC (µg/mL)
Hi! Could you send only the number? It should be in µg/mL, unit omitted.

{"columns": ["molecular-string", "MIC (µg/mL)"],
 "data": [
  ["CCCCCCCCCCCCN(CC#N)c1ccccc1", 128],
  ["Fc1cccc(CN(Cc2nnn[nH]2)c2ccccc2)c1", 32],
  ["COc1ccc(N(CC#N)Cc2ccc(Cl)cc2Cl)cc1", 128],
  ["Clc1ccc(CN(Cc2nnn[nH]2)c2ccccc2)c(Cl)c1", 16],
  ["Clc1ccc(CN(Cc2nnn[nH]2)c2ccccc2)cc1Cl", 32],
  ["Cc1ccc(N(CC#N)Cc2ccc(Cl)cc2Cl)cc1", 128]
]}

q: Which MIC is listed for `COc1ccc(N(Cc2nnn[nH]2)Cc2ccc(F)cc2F)cc1` ?
a: 32

q: Which MIC is listed for `N#CCN(Cc1ccc(Cl)cc1)c1ccccc1` ?
a: 256

q: Which MIC is listed for `Cc1ccc(N(CC#N)Cc2ccc(F)cc2F)cc1` ?
a: 64

q: Which MIC is listed for `CCCCCCCCN(CC#N)c1ccccc1` ?
a: 256

q: Which MIC is listed for `N#CCN(Cc1ccc(F)cc1)c1ccccc1` ?
a: 128

q: Which MIC is listed for `CCCCCCCCN(Cc1nnn[nH]1)c1ccccc1` ?
a: 128

q: Which MIC is listed for `CCCCCCCCCCN(CC#N)c1ccccc1` ?
a: 128

---

assay-explanation: Ionization constant, pKa of the compound by UV spectroscopy
Format: physicochemical
As shown below, each of these compounds has a reported pKa value.
API note: the answer field is a bare number with no unit suffix.

Example compounds with recorded pKa:
{"columns": ["molecular-string", "pKa"],
 "data": [
  ["Fc1ccc(CN(Cc2nnn[nH]2)c2ccccc2)cc1", 4.2],
  ["Cc1ccc(N(Cc2nnn[nH]2)Cc2ccc(F)cc2F)cc1", 4.23],
  ["Fc1ccc(CN(Cc2nnn[nH]2)c2ccccc2)c(F)c1", 4.13]
]}

q: Which pKa is listed for `CCCCCCCCCCCCN(Cc1nnn[nH]1)c1ccccc1` ?
a: 4.92

q: Which pKa is listed for `COc1ccc(N(Cc2nnn[nH]2)Cc2ccc(Cl)cc2Cl)cc1` ?
a: 4.29

---

System: Aspergillus flavus
assay-explanation: Antifungal activity against Aspergillus flavus after 24 hrs by micro broth dilution method
Type: functional
MIC vs 60 mg/L: less than gives Y; not less than gives N.

Worked set:
{"columns": ["compound", "measured-target", "class-name"],
 "data": [
  ["OC(Cn1cncn1)(Cn1cncn1)c1ccc(F)cc1F [FLUCONAZOLE]", "Aspergillus flavus", "N"],
  ["Fc1ccccc1CN(Cc1nnn[nH]1)c1ccccc1", "Aspergillus flavus", "N"],
  ["COc1ccc(N(CC#N)Cc2ccc(F)cc2F)cc1", "Aspergillus flavus", "N"],
  ["CCCCCCCCCCCCN(Cc1nnn[nH]1)c1ccccc1", "Aspergillus flavus", "Y"],
  ["CCCCCCCCCCN(Cc1nnn[nH]1)c1ccccc1", "Aspergillus flavus", "Y"]
]}

q: Lab note: MIC threshold 60 mg/L. Does this compound come in strictly under it? `COc1ccc(N(Cc2nnn[nH]2)Cc2ccc(Cl)cc2Cl)cc1`
a: Y

q: Lab note: MIC threshold 60 mg/L. Does this compound come in strictly under it? `Fc1ccc(CN(Cc2nnn[nH]2)c2ccccc2)c(F)c1`
a: Y

q: Lab note: MIC threshold 60 mg/L. Does this compound come in strictly under it? `CCCCCCN(Cc1nnn[nH]1)c1ccccc1`
a: N

q: Lab note: MIC threshold 60 mg/L. Does this compound come in strictly under it? `N#CCN(Cc1ccccc1Cl)c1ccccc1`
a: N

q: Lab note: MIC threshold 60 mg/L. Does this compound come in strictly under it? `Cc1ccc(N(Cc2nnn[nH]2)Cc2ccc(Cl)cc2Cl)cc1`
a: Y

q: Lab note: MIC threshold 60 mg/L. Does this compound come in strictly under it? `N#CCN(Cc1ccc(Cl)cc1Cl)c1ccccc1`
a: N

q: Lab note: MIC threshold 60 mg/L. Does this compound come in strictly under it? `N#CCN(Cc1ccccc1F)c1ccccc1`
a: N

---

As shown below, each of these molecules has a reported MIC value.
Tested on: Candida
assay-explanation: Antifungal activity against Candida mycoderma after 24 hrs by micro broth dilution method
Format: functional
Hi! Could you send only the number? It should be in µg/mL, unit omitted.

Example molecules with recorded MIC:
{"columns": ["molecule", "MIC (µg/mL)"],
 "data": [
  ["CCCCCCN(Cc1nnn[nH]1)c1ccccc1", 64],
  ["COc1ccc(N(CC#N)Cc2ccc(Cl)cc2Cl)cc1", 64],
  ["Fc1ccc(CN(Cc2nnn[nH]2)c2ccccc2)cc1", 16],
  ["Fc1ccc(CN(Cc2nnn[nH]2)c2ccccc2)c(F)c1", 16],
  ["N#CCN(Cc1ccc(F)cc1F)c1ccccc1", 256],
  ["Cc1ccc(N(CC#N)Cc2ccc(Cl)cc2Cl)cc1", 512],
  ["Clc1ccc(CN(Cc2nnn[nH]2)c2ccccc2)cc1", 16],
  ["CCCCCCN(CC#N)c1ccccc1", 256]
]}

q: Which MIC is listed for `CCCCCCCCCCN(Cc1nnn[nH]1)c1ccccc1` ?
a: 32

q: Which MIC is listed for `Clc1ccc(CN(Cc2nnn[nH]2)c2ccccc2)cc1Cl` ?
a: 16

q: Which MIC is listed for `CCCCCCCCCCN(CC#N)c1ccccc1` ?
a: 128

---

System: Aspergillus flavus
assay-explanation: Antifungal activity against Aspergillus flavus after 24 hrs by micro broth dilution method
Assay type: functional
property: MIC
Answer with the number, then the unit.

Example compounds with recorded MIC:
{"columns": ["molecular-string", "property", "assay-result"],
 "data": [
  ["Clc1ccc(CN(Cc2nnn[nH]2)c2ccccc2)cc1", "MIC", "32 µg/mL"],
  ["Clc1ccccc1CN(Cc1nnn[nH]1)c1ccccc1", "MIC", "8 µg/mL"],
  ["CCCCCCN(CC#N)c1ccccc1", "MIC", "128 µg/mL"],
  ["Cc1ccc(N(Cc2nnn[nH]2)Cc2ccc(F)cc2F)cc1", "MIC", "32 µg/mL"],
  ["Fc1ccc(CN(Cc2nnn[nH]2)c2ccccc2)cc1", "MIC", "32 µg/mL"],
  ["N#CCN(Cc1cccc(F)c1)c1ccccc1", "MIC", "256 µg/mL"],
  ["N#CCN(Cc1ccc(F)cc1F)c1ccccc1", "MIC", "256 µg/mL"]
]}

Alright, here's another compound for you.
q: Which MIC is listed for `N#CCN(Cc1ccc(Cl)c(Cl)c1)c1ccccc1` ?
a: 256 µg/mL

---

As shown below, each of these compounds has a reported logP at 24 h value.
assay-explanation: n-octanol/water partition coefficient, log P of the compound at 25 deg C after 24 hrs by saturation shake flask based UV spectroscopy
Format: physicochemical
API note: the answer field is a bare number with no unit suffix.

Example compounds with recorded logP at 24 h:
{"columns": ["molecular-string", "logP at 24 h"],
 "data": [
  ["Clc1ccc(CN(Cc2nnn[nH]2)c2ccccc2)cc1", 1.39],
  ["Fc1ccccc1CN(Cc1nnn[nH]1)c1ccccc1", 1.28],
  ["Fc1ccc(CN(Cc2nnn[nH]2)c2ccccc2)c(F)c1", 1.36],
  ["Fc1ccc(CN(Cc2nnn[nH]2)c2ccccc2)cc1", 1.26],
  ["Fc1cccc(CN(Cc2nnn[nH]2)c2ccccc2)c1", 1.29],
  ["Clc1ccc(CN(Cc2nnn[nH]2)c2ccccc2)c(Cl)c1", 1.67],
  ["CCCCCCN(Cc1nnn[nH]1)c1ccccc1", 2.18]
]}

Alright, here's another compound for you.
q: Which logP at 24 h is listed for `Clc1ccc(CN(Cc2nnn[nH]2)c2ccccc2)cc1Cl` ?
a: 1.63
